- Protocol notes: log P determination by HPLC on reversed-phase columns (C 18), analogously to OECD Guideline 117
- Format: physicochemical
- Experimental context: reversed-phase C18 HPLC column; neutral range, pH 7.8, 0.001 molar aqueous ammonium hydrogencarbonate and acetonitrile; read-out: log P[b] / log P(neutral)
Parameter threshold = 3. Response is 1.0 when chromatographic logP meets or exceeds it, else 0.0.

Can `COc1ccc(B(O)O)cc1SCC(F)(F)F` be said to have chromatographic logP at or above 3?
0.0

Quick check, chromatographic logP >= 3? `CC1(C)OB(c2ccc(Cl)c(SCC(F)(F)F)c2)OC1(C)C`
1.0

Item `CCn1c(=O)n(-c2ccccc2)c(=O)n1-c1cc(SCC(F)(F)F)c(C)cc1F` with chromatographic logP of 3 or above?
1.0

Decide: chromatographic logP of Cc1cc(F)c(N2C(=O)N(C)C(C)(C)C2=O)cc1[S+]([O-])CC(F)(F)F (stereo not shown) >= 3?
0.0

I'd appreciate it if you could say whether `Cc1cc(F)c(N2C(=O)C(C)(C)C(=O)N2C)cc1SCC(F)(F)F` has chromatographic logP at least equal to 3.
0.0

Say whether `CC1(C)OB(c2cc(SCC(F)(F)F)c(Cl)cc2Cl)OC1(C)C` shows chromatographic logP of 3 or more.
1.0

# bool: chromatographic logP of Cc1ccc(-n2c(=O)n(C)c(=O)n2C)cc1[S+]([O-])CC(F)(F)F (stereo not shown) >= 3
0.0

Tell me whether chromatographic logP is at least 3 here: `COc1ccc(B2OC(C)(C)C(C)(C)O2)cc1SCC(F)(F)F`
1.0

# bool: chromatographic logP of `Cc1cc(F)c(-n2c(=O)n(C)n(C)c2=O)cc1SCC(F)(F)F` >= 3
0.0

Does Cn1c(OCc2ccccc2Cl)n[nH]c1=O [drawing 121 R1=2-chlorobenzyl R10=CH3] have a reported chromatographic logP of at least 3?
0.0

* * *

- Protocol notes: log P determination by HPLC on reversed-phase columns (C 18), analogously to OECD Guideline 117
- Format: physicochemical
- Experimental context: LC-MS in the acidic range, pH 2.7, 0.1% aqueous formic acid / acetonitrile, HPLC reversed-phase C 18
I'd be grateful if you could share measured logP (HCOOH) for these entries.
Reply briefly: the number, and no unit.

Field logP (HCOOH) (entry CCCn1c(=O)n(C2CC2)c(=O)n1-c1cc([S+]([O-])CC(F)(F)F)c(C)cc1F (stereo not drawn) ) reads 2.46

Value of logP (HCOOH) reported for the compound Cc1cc(F)c(N2CC(=O)N(C)C2=O)cc1[S+]([O-])CC(F)(F)F (stereo not drawn) is 1.68

Memo: `CCC1(CC)C(=O)N(C)N(c2cc(SCC(F)(F)F)c(C)cc2F)C1=O` , reported logP (HCOOH): 3.41

* * *

Task for the reader: assign each of the following compounds its reported logP (neutral).
- Protocol notes: log P determination by HPLC on reversed-phase columns (C 18), analogously to OECD Guideline 117
- Assay type: physicochemical
- Experimental context: LC-MS in the neutral range, pH 7.8, 0.001 molar aqueous ammonium hydrogencarbonate / acetonitrile, HPLC reversed-phase C 18
Please give only the number in your answer, with no unit.

Field logP (neutral) (entry `Cc1cc(F)c(-n2c(=O)n(C)c(=O)n2-c2cc(F)c(C#N)cc2F)cc1SCC(F)(F)F` ) reads 3.29

Lab note: measured logP (neutral) of Cc1cc(F)c(-n2c(=O)n(C(C)(C)C)c(=O)n2C)cc1[S+]([O-])CC(F)(F)F (stereo not shown) was 2.65

Lab note: CCn1c(=O)n(-c2ccc(C)c([S+]([O-])CC(F)(F)F)c2)n(C(C)C)c1=O (stereo not shown) gave logP (neutral) of 2.54

Record summary for `Cc1cc(F)c(-n2c(=O)n(CC(F)F)c(=O)n2CC(F)(F)F)cc1SCC(F)(F)F` : reported logP (neutral) = 3.51

Entry under test: `Cc1cc(F)c(-n2c(=O)n(C(C)C)c(=O)n2CC(C)C)cc1SCC(F)(F)F` . Its logP (neutral) was 4.21

Reported logP (neutral) for `Cc1cc(F)c(-n2c(=O)n(CC3CC3)c(=O)n2C)cc1SCC(F)(F)F` was 3.34

Kindly note the recorded logP (neutral) for `Cc1cc(F)c(-n2c(=O)n(-c3cccc(C(F)(F)F)c3)c(=O)n2C)cc1SCC(F)(F)F` , which is 3.94

Form field logP (neutral), entry `Cc1ccc(-n2c(=O)n(C)c(=O)n2Cc2ccccc2Cl)cc1SCC(F)(F)F` : 3.75

Briefly, logP (neutral) measured for Cc1cc(F)c(N2C(=O)C3(CCC3)C(=O)N2C)cc1[S+]([O-])CC(F)(F)F (stereo not shown) : 1.97

Short answer for Cc1ccc(-n2c(=O)n(C(C)(C)C)c(=O)n2C)cc1[S+]([O-])CC(F)(F)F (stereo not shown) : logP (neutral) was 2.70

The value of logP (neutral) measured for the compound Cc1ccc(-n2c(=O)n(C)c(=O)n2-c2ccc(C)c([S+]([O-])CC(F)(F)F)c2)cc1SCC(F)(F)F (stereo not shown) turned out to be 3.38

Record `CCCCN1CC(=O)N(c2cc(SCC(F)(F)F)c(C)cc2F)C1=O` . Reported logP (neutral): 3.35

Looking up `Cc1ccc(-n2c(=O)n(C3CC3)c(=O)n2C(C)C)cc1SCC(F)(F)F` , I found its logP (neutral) recorded as 3.57

response.value for Cn1c(=O)n(C2CC2)c(=O)n1-c1ccc(C#N)c([S+]([O-])CC(F)(F)F)c1 (stereo not shown) (field: logP (neutral)) = 1.90

# logP (neutral) (compound: `CCn1c(=O)n(C2CC2)c(=O)n1-c1cc(SCC(F)(F)F)c(C)cc1F` ) is 3.17

Input `Cc1ccc(-n2c(=O)n(C)c(=O)n2C(C)C)cc1SCC(F)(F)F` . Output logP (neutral): 3.27

* * *

- Protocol notes: log P determination by HPLC on reversed-phase columns (C 18), analogously to OECD Guideline 117
- Assay type: physicochemical
- Experimental context: LC-MS in the acidic range, pH 2.7, 0.1% aqueous formic acid / acetonitrile, HPLC reversed-phase C 18
Observed property: logP (HCOOH)
Reply briefly: the number, and no unit.

Input C#CCn1c(=O)n(-c2cc(SCC(F)(F)F)c(C)cc2F)c(=O)n1C [Example 121] . Output logP (HCOOH): 2.81

Note to self: logP (HCOOH) recorded for Cc1cc(F)c(N2C(=O)N(C3CC3)C(=O)C2C)cc1SCC(F)(F)F (stereo not shown) [Example 214] was 3.12

For this molecule ( Cn1c(=O)n(C2CC2)c(=O)n1-c1cc([S+]([O-])CC(F)(F)F)c(Cl)cc1F (stereo not shown) [Example 38] ), measured logP (HCOOH) is 2.18

Kindly note the recorded logP (HCOOH) for Cc1cc(F)c(-n2c(=O)n(-c3ccccc3)c(=O)n2CC(F)(F)F)cc1[S+]([O-])CC(F)(F)F (stereo not shown) [Example 167] , which is 3.05

The molecule Cn1c(=O)n(C2CC2)c(=O)n1-c1ccc(C(F)(F)F)c(SCC(F)(F)F)c1 [Example 53] showed logP (HCOOH) equal to 3.33

Looking up Cc1cc(F)c(-n2[nH]c(=O)n(C3CC3)c2=O)cc1SCC(F)(F)F [Example 207] , I found its logP (HCOOH) recorded as 1.57

Value of logP (HCOOH) reported for the molecule Cn1c(=O)n(C)n(-c2cc([S+]([O-])CC(F)(F)F)c(Cl)cc2F)c1=O (stereo not shown) [Example 29] is 1.93

Given item Cc1ccc(-n2c(=O)n(C(C)C)c(=O)n2C)cc1SCC(F)(F)F [Example 132] , the value recorded as its logP (HCOOH) is 3.42

Measured logP (HCOOH), Cc1cc(F)c(N2C(=O)N(C)C(=O)C2C)cc1[S+]([O-])CC(F)(F)F (stereo not shown) [Example 213] : 1.91

For Cc1ccc(-n2c(=O)n(C3CC3)c(=O)n2CC(C)C)cc1[S+]([O-])CC(F)(F)F (stereo not shown) [Example 50] the molecule record lists logP (HCOOH) as 3.58

CCn1c(=O)n(C)c(=O)n1-c1cc(SCC(F)(F)F)c(C)cc1F [Example 97] yielded logP (HCOOH) of 2.91

Data point: Cc1cc(F)c(N2C(=O)C(=O)N(CC(F)(F)F)C2=S)cc1[S+]([O-])CC(F)(F)F (stereo not shown) [Example 190] ; logP (HCOOH) = 3.03

Reported logP (HCOOH) ( CCCCN1CC(=O)N(c2cc([S+]([O-])CC(F)(F)F)c(C)cc2F)C1=O (stereo not shown) [Example 203] ) = 2.47

For record Cc1cc(F)c(N2C(=O)C(C)(C)C(=O)N2c2ccccc2)cc1SCC(F)(F)F [Example 173] the listed logP (HCOOH) is 3.64

Sample Cc1cc(F)c(-n2c(=O)n(C3CC3)c(=O)n2C(C)(C)C)cc1SCC(F)(F)F [Example 144] ; logP (HCOOH) observed: 4.08

The measured logP (HCOOH) associated with CCn1c(=O)[nH]n(-c2cc(SCC(F)(F)F)c(C)cc2F)c1=O [Example 85] reads 2.43
